meta.source: patent US20240270821A1

# TARGET_UNDER_TEST: human glucagon receptor (human) (UniProt P47871)
# Sequence (P47871 26-477): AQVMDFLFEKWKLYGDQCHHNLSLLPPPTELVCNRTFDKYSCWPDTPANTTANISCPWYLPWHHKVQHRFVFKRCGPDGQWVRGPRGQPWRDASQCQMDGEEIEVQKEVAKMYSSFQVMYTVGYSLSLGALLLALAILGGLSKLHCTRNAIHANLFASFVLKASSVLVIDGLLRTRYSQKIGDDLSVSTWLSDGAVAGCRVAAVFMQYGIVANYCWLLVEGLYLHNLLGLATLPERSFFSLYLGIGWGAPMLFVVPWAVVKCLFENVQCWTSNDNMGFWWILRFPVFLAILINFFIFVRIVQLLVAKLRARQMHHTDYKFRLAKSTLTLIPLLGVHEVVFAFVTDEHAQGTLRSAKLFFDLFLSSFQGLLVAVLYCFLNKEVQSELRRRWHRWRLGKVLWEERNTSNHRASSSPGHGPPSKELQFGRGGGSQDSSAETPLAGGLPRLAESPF
# METHOD_SUMMARY: cell-based or functional assay
MEASURED_ATTRIBUTE: cAMP Rel EC50 (in the presence of 1% HSA) (nM)
Numbers only, in nM.

Past entries and their recorded results:
BINDER	READOUT_UNITS	VALUE_REPORTED
YXQGTFTSDFSXXLDKKAQXAFIEYLLAGGPSSGEPPPSEG (synthetic construct; SITE 2: note = 2-Aminoisobutyric Acid; SITE 12: note = L-ornithine; SITE 13: note = alpha-methyl-leucine; SITE 17: note = Lysine is chemically modified through conjugation of the epsilon-amino group of the Lysine side chain with (2-[2-(2-Amino-ethoxy)-ethoxy]-acetyl)-(gamma-Glu)) [Example 29]	nM	1350
YXQGTFTSDFSKXLDKKAQXAFIEYLLEGGPSSGEPPPEEG (not fully specified; synthetic construct; SITE 2: note = 2-Aminoisobutyric Acid; SITE 13: note = alpha-methyl-leucine; SITE 17: note = Lysine is chemically modified through conjugation of the epsilon-amino group of the Lysine side chain with (2-[2-(2-Amino-ethoxy)-ethoxy]-acetyl)-(gamma-Glu)-CO-(CH2) 18-CO2H; SITE 20: n) [Example 35]	nM	1390

Q: Which cAMP Rel EC50 (in the presence of 1% HSA) value is on record for YXQGTFTSDFSKXLDKKAQXAFIEWLLAGGPSSGEPPPSGE (synthetic construct; SITE 2: note = 2-Aminoisobutyric Acid; SITE 13: note = alpha-methyl-leucine; SITE 17: note = Lysine is chemically modified through conjugation of the epsilon-amino group of the Lysine side chain with (2-[2-(2-Amino-ethoxy)-ethoxy]-acetyl)-(gamma-Glu)-CO-(CH2) 18-CO2H; SITE 20: n) [Example 21] ?
Result: 1510
